Assign GI50 to each entry below.
Tested on: UACC-257
Assay: NCI tumour cell line growth inhibition, 48 h
The source made the active and inactive calls. No stated cut-off is given here; in the data, active = GI50 up to about 1.1 µM and inactive = higher.

Task item: Would you mind telling me what GI50 value was observed for `CCOC(=O)c1ccc2c(=O)n3c(C(=O)OCC)ccc3c(=O)n12` ?
Reply: > 100 µM (inactive)

Task item: Would you mind telling me what GI50 value was observed for `CCOC(=O)Cc1nn2c(=O)cc(C)nc2s1` ?
Reply: > 100 µM (inactive)

Task item: Would you mind telling me what GI50 value was observed for C=C1CCC(OC(C)=O)C2(C)C(OC(C)=O)CC3OC3(C)C2C(OC(C)=O)C2C(C)C(=O)OC2C1Cl (stereo not drawn) ?
Reply: > 100 µM (inactive)

Task item: Would you mind telling me what GI50 value was observed for `CN(C)CCNC(=O)c1cccc2nc3cc(Cl)ccc3nc12` ?
Reply: 2.82 µM (inactive)

Task item: Would you mind telling me what GI50 value was observed for `CN1CCN(CC(=O)Nc2cccc3ccccc23)CC1` ?
Reply: > 100 µM (inactive)

Task item: Would you mind telling me what GI50 value was observed for CC1(C)C=C(/C=C2/N(S(=O)(=O)C(F)(F)F)C(/C=C3/N(S(=O)(=O)C(F)(F)F)C(C)(C#N)CC3(C)C)=CC2(C)C)N=C1/C=C1/CC(C)(C)C(=O)N1 (stereo not drawn) ?
Reply: 20.6 µM (inactive)

Task item: Would you mind telling me what GI50 value was observed for CCOC(=O)c1cc(C(O)P2(=O)N(CC(C)(C)C)[C@@H]3CCCC[C@H]3N2CC(C)(C)C)cn1C(=O)OC(C)(C)C (stereo partly drawn) ?
Reply: 14.4 µM (inactive)

Task item: Would you mind telling me what GI50 value was observed for `C=CCN(c1cc(OC)c2[nH]c(C(=O)O)c(C)c2c1[N+](=O)[O-])S(C)(=O)=O` ?
Reply: > 100 µM (inactive)

Task item: Would you mind telling me what GI50 value was observed for `O=C(C(=O)n1ccc2ccccc21)c1c[nH]c2ccccc12` ?
Reply: > 10 µM (inactive)

Task item: Would you mind telling me what GI50 value was observed for CC(=O)O[C@H]1CC[C@@]2(C)C(=CC[C@H]3C4=CC=C(C(C)=O)[C@@]4(C)CCC32)C1 (stereo partly drawn) ?
Reply: 24 µM (inactive)

Task item: Would you mind telling me what GI50 value was observed for `NNC(=O)CSc1nc2ccc(I)cc2c(=O)n1Cc1ccccc1` ?
Reply: 19.9 µM (inactive)

Task item: Would you mind telling me what GI50 value was observed for `CN(C)CCNc1ccc(NCCN(C)C)c2c1C(=O)c1ncsc1C2=O` ?
Reply: 18.5 µM (inactive)

Task item: Would you mind telling me what GI50 value was observed for `N#Cc1c(NC(=S)NC(=O)c2ccccc2)nc2c(c1-c1ccccc1)CCC2` ?
Reply: > 100 µM (inactive)
